- Tested on: NCI-H522 lung
- assay procedure: NCI-60 one-dose screen, 48 h (100 = growth as untreated, 0 = no growth, -100 = all killed)
- measurement conditions: 10 µM unless noted
The panel holds about 83,000 compounds, 20% with a hit somewhere; the sample as a whole holds those more often.
measured property: growth (%)
# value in %; strip the unit string

molecule	growth (%)
Cn1cc(-c2nonc2-c2c[nH]c3ccccc23)c2cccnc21	18.4
C=C(C)[C@@H]1CC[C@]2(C(=O)OC)CC[C@]3(C)[C@H](CC[C@@H]4[C@@]5(C)C/C(=C/c6cccc(I)c6)C(=O)C(C)(C)[C@@H]5CC[C@]43C)[C@@H]12	89
COc1ccc(C(=O)c2sc3nc4c(c(-c5cccnc5)c3c2N)CCCC4)cc1OC	83
C=CCSSC1N=CNc2nc[nH]c21 (stereo not drawn)	0.803

Next up:
Look up growth for this molecule: O=S(=O)(Nc1ccc(Br)c(Cl)c1)c1ccc(-c2cnc(C3CC3)o2)cc1
-17.7

====

- Test system: SF-539 CNS
- assay procedure: NCI-60 one-dose screen, 48 h
- measurement conditions: 10 µM unless noted
About 83,000 compounds went through this panel and 20% of them were active in at least one assay; those are over-represented in the sample as a whole. Activity calls are given as the source filed them. How the source made its calls: active means growth percent below 10; inactive means the rest.
Respond using exactly one of the listed classes: active, inactive

Field: example entries. Status: answers known.
compound	assigned label
O=C(CN(C(=O)Cn1c(=O)n2nnnc2c2ccccc21)c1ccccc1C(F)(F)F)Nc1ccc(C(F)(F)F)cc1	inactive
Fc1ccc(CNc2cccc3[nH]c(C(F)(F)F)nc23)cc1	inactive

Name the outcome recorded for O=c1c2c3c(sc2nc(N/N=C/c2cn(-c4ccccc4)nc2-c2ccc(Cl)cc2)n1Cc1ccccc1)CCCC3 in the assay.
inactive

Name the outcome recorded for CN(C)S(=O)(=O)c1ccc(S(=O)(=O)Nc2cccc(Cl)c2N2CCCCC2)cc1 in the assay.
inactive

Name the outcome recorded for COc1cc(-c2nc3ccccc3[nH]2)ccc1OCC(=O)N=Nc1c(O)[nH]c2ccc(Cl)cc12 in the assay.
active

Name the outcome recorded for CC(=O)Nc1ccc(S(=O)(=O)Nc2cccc(-c3nc(-c4ccc(NC(=O)c5cccnc5)cc4Cl)no3)c2)cc1 in the assay.
active

Name the outcome recorded for CC1=C[C@H]2c3c(c(O)c(O)c4oc5c(C)cccc5c(=O)c34)[C@H](c3cc(O)c(O)c4oc5c(C)cccc5c(=O)c34)[C@H]2C(C)(C)C1 in the assay.
active

Name the outcome recorded for NCCNc1nc(Nc2ccc(-c3nc4ccccc4[nH]3)cc2)c2cn[nH]c2n1 in the assay.
active

Name the outcome recorded for COc1cc(C(=O)Oc2ccccc2OC(=O)c2cc(OC)c(OC)c(OC)c2)cc(OC)c1OC in the assay.
inactive

Name the outcome recorded for CSc1nc(-c2cccc(NC(=O)CCl)c2)c(C#N)c(=O)n1C in the assay.
inactive

Name the outcome recorded for Cc1nn(-c2ccc(F)cc2)c2ncnc(Oc3ccc(NC(=O)Nc4ccc(Cl)c(C(F)(F)F)c4)cc3)c12 in the assay.
inactive

Name the outcome recorded for Cc1ccc(NS(=O)(=O)c2ccc(-c3cnc(C4CC4)o3)cc2)cc1C in the assay.
active

Name the outcome recorded for CC(=O)OCCC/C(=C/c1cc2ccccc2c2ccccc12)[N+](=O)[O-] in the assay.
active

Name the outcome recorded for COc1ccc2c(c1)C(=O)/C(=C/c1ccccn1)CC2 in the assay.
inactive

Name the outcome recorded for COc1ccc(-c2nc(SCC(=O)Nc3ccc(C(=O)/C=C/c4ccc(Cl)cc4)cc3)[nH]c(=O)c2C#N)cc1 in the assay.
inactive

Name the outcome recorded for COc1cccc2c1C(=O)c1c(O)c3c(c(O)c1C2=O)C[C@](O)(C(=O)CO)C[C@H]3O[C@@H]1C[C@@H](NC(=O)CCCCCN(C)C2(c3ccc(F)cc3)CC3CCC2C3)[C@H](O)[C@@H](C)O1 (stereo partly drawn) in the assay.
active

Name the outcome recorded for COc1ccc(-c2n[nH]nc2-c2csc3ccccc23)cc1OC in the assay.
active

Name the outcome recorded for C#CCOc1ccc2ncnc(Nc3cccc(CNC(=O)CCl)c3)c2c1 in the assay.
inactive

====

- Tested on: SK-MEL-2 melanoma
- assay procedure: NCI-60 one-dose screen, 48 h (100 = growth as untreated, 0 = no growth, -100 = all killed)
- measurement conditions: 10 µM unless noted
The panel holds about 83,000 compounds, 20% with a hit somewhere; the sample as a whole holds those more often.
Measured growth, listed per entry for reference.
# value in %; strip the unit string

The following molecules have reported results that may help.
molecule	tgt	growth / %
Brc1ccc(-c2csc(Nc3ccccn3)n2)cc1	SK-MEL-2 melanoma	69.8
Nc1n[nH]c2ccc([C@@H]3Nc4ccc5[nH]ncc5c4[C@H]4C5C=CC(C5)[C@@H]34)cc12 (some centres undefined)	SK-MEL-2 melanoma	46.9
O=C1Nc2ccc(Br)cc2C12Oc1ccccc1C1CC(c3ccc(F)cc3)=NN12 (centres undefined)	SK-MEL-2 melanoma	98.1

Next up:
Look up growth for this molecule: O=C1OCC2=C1C(c1ccncc1)c1cc3c(cc1N2CCO)OCO3 (centres undefined)
107

====

- Tested on: TK-10 renal
- assay procedure: NCI-60 one-dose screen, 48 h (100 = growth as untreated, 0 = no growth, -100 = all killed)
- measurement conditions: 10 µM unless noted
The panel holds about 83,000 compounds, 20% with a hit somewhere; the sample as a whole holds those more often.
Measured growth, listed per entry for reference.
# value in %; strip the unit string

The following molecules have reported results that may help.
molecule	tgt	unit text	growth
CC(=O)O[C@H]1C(=O)[C@@]2(C)[C@H]([C@H](OC(=O)c3ccccc3)[C@]3(O)C[C@H](OC(=O)[C@H](OC(=O)CCC(=O)OC4CCC(S/N=C(N)/N=C(\N)N(C)C)CC4)[C@@H](NC(=O)c4ccccc4)c4ccccc4)C(C)=C1C3(C)C)[C@]1(OC(C)=O)CO[C@@H]1C[C@@H]2O (some centres not stated)	TK-10 renal	%	48.9
N#Cc1c(-c2ccc(Cl)cc2)nc(N=Nc2c(O)[nH]c3ccc(Cl)cc23)nc1N1CCOCC1	TK-10 renal	%	120
COc1cccc(-c2nn(C(C)(C)C)cc2-c2ccnc(NCCCNS(=O)(=O)c3cccc4ccccc34)c2)c1	TK-10 renal	%	101
CC(O)CN1CC(O)=C(c2nc3ccccc3s2)C1=N (configuration not stated)	TK-10 renal	%	131

Look up growth for this molecule: COC[C@H](C)n1c(C2CCOCC2)nc2cnc3cc(-c4c(C)noc4C)c(OC)cc3c21
29.4

Look up growth for this molecule: CN1CCN(c2nc(NCCCCNc3ccnc4cc(Cl)ccc34)c3ccccc3n2)CC1
73

Look up growth for this molecule: O=C(CN(C(=O)Cn1c(=O)n2nnnc2c2ccccc21)c1ccccc1C(F)(F)F)Nc1ccc(C(F)(F)F)cc1
111

====

- Test system: SK-MEL-5 melanoma
- assay procedure: NCI-60 one-dose screen, 48 h (100 = growth as untreated, 0 = no growth, -100 = all killed)
- measurement conditions: 10 µM unless noted
About 83,000 compounds went through this panel and 20% of them were active in at least one assay; those are over-represented in the sample as a whole.
Measured growth, listed per entry for reference.
# value in %; strip the unit string

The following compounds have reported results that may help.
compound	unit text	growth
C=CCSSc1ncnc2c1ncn2C1OC(CO)C(O)C1O (stereo unspecified)	%	61.1
COc1cc2nnc3c4cccnc4[nH]c3c2cc1OC	%	93.5
COc1ccc(C(=S)N2CCN(c3cccc(Cl)c3)CC2)cc1	%	130

Please state recorded growth (tested on SK-MEL-5 melanoma) of N#Cc1c(-c2ccc(Cl)cc2)nc(N=Nc2c(O)[nH]c3ccc(Cl)cc23)nc1N1CCOCC1
97.3

Please state recorded growth (tested on SK-MEL-5 melanoma) of C=CCSSC1N=CNc2nc[nH]c21 (stereo unspecified)
60.7

Please state recorded growth (tested on SK-MEL-5 melanoma) of Nc1ccc(-c2cc3c(NCc4ccccc4)ncnc3s2)cc1
55.7

Please state recorded growth (tested on SK-MEL-5 melanoma) of O=C(N=Nc1c(O)[nH]c2ccccc12)c1cc(-c2ccccc2)on1
100

Please state recorded growth (tested on SK-MEL-5 melanoma) of CSc1nc(NCc2ccccc2)c(C#N)c(-c2cccc([N+](=O)[O-])c2)n1
100

Please state recorded growth (tested on SK-MEL-5 melanoma) of CC(C)(O)c1cn(CCCCN2C(=O)C(=O)c3ccccc32)nn1
99.7

Please state recorded growth (tested on SK-MEL-5 melanoma) of COc1cccc(Nc2nc(SC)nc(-c3cccc([N+](=O)[O-])c3)c2C#N)c1
87.2

Please state recorded growth (tested on SK-MEL-5 melanoma) of Cn1cc(-c2nonc2-c2cn(C)c3ccc(F)cc23)c2cc(F)ccc21
51.4

====

Measured growth, listed per entry for reference.
- Test system: MCF7 breast
- assay procedure: NCI-60 one-dose screen, 48 h (100 = growth as untreated, 0 = no growth, -100 = all killed)
- measurement conditions: 10 µM unless noted
This is part of a sample that, as a whole, favours compounds with a hit. Of some 83,000 tested, about 20% had one in any assay.
# value in %; strip the unit string

The following molecules have reported results that may help.
input smiles	tgt	growth / %
Cn1cc(C(=O)c2nc(-c3c[nH]c4ccc(F)cc34)no2)c2cc(F)ccc21	MCF7 breast	58.1
NC1=C(Cl)C(=O)c2ccc(S(N)(=O)=O)cc2C1=O	MCF7 breast	-49.5
COc1ccccc1Nc1nc(-c2cc3cccc(C(F)(F)F)c3oc2=O)cs1	MCF7 breast	15.7
COc1cc(-c2nc3cc(Cl)c(Cl)cc3[nH]2)ccc1OCC(=O)N=Nc1c(O)[nH]c2ccccc12	MCF7 breast	-76.1

Next up:
Look up growth for this molecule: O=C1c2cc3c(cc2-c2c1c1cc(F)c(F)cc1c(=O)n2CCCn1ccnc1)OCO3
-1.22

Provenance of the data: PubChem BioAssay (NCI)
